The reported numbers originate from PubChem BioAssay (NCATS).

- System: GB4
- procedure.summary: qHTS profiling for inhibitors of Plasmodium falciparum proliferation (AID 504749); also: nearly all actives have a fitted effect of over 60% in size
- assay.conditions: P. falciparum in erythrocytes, SYBR Green DNA, 72 h; series mostly up to 28.7 µM
Results filed as inconclusive are left out. Activity calls are given as the source filed them. Calls follow the shape of the dose curve; as a rule, active = well fitted inhibition curve with a large enough effect; inconclusive = small, poorly fitted or top-dose-only effect; inactive = flat fitted curve, though single readings scatter.
Please reply with one of these outcomes: t (active), f (inactive)

*Q* // outcome(item) with item = CN1C[C@H](CNC(=O)OCc2ccccc2)C[C@@H]2c3cccc4c3c(cn4C)C[C@H]21
*A* t

*Q* Cool, now FC(F)(F)c1cccc(C2=CCN(CCc3ccc4ccccc4c3)CC2)c1
*A* f

*Q* Moving on to the next compound: CC(=O)Nc1cc([As](=O)(O)O)ccc1O
*A* f

*Q* Continue with CC(=O)[C@H]1CC[C@H]2[C@@H]3CC[C@H]4C[C@](C)(O)CC[C@]4(C)[C@H]3CC[C@]12C
*A* f

*Q* Let us now turn to C[C@]12C/C(=C/O)C(=O)C[C@@H]1CC[C@@H]1[C@@H]2CC[C@@]2(C)[C@H]1CC[C@]2(C)O
*A* f

*Q* Request: CC(C)CC(N(C)C)C1(c2ccc(Cl)cc2)CCC1 (configuration not stated)
*A* f

*Q* Repeat with CC1OC(C)OC(C)O1 (configuration not stated)
*A* f

*Q* // next record CCCC(C)(COC(N)=O)COC(=O)NC(C)C (configuration not stated)
*A* f

*Q* # repeat for Cc1cccc(C)c1NC1=NCCCS1
*A* t

*Q* Similarly, O=C(NC(O)C(Cl)(Cl)Cl)NC(O)C(Cl)(Cl)Cl (configuration not stated) ?
*A* f

*Q* Also CC(C)(C)NCC(O)c1cc(Cl)c(N)c(Cl)c1 (configuration not stated) ?
*A* t

*Q* Follow-up entry: CN(C)CCc1ccc(O)cc1
*A* f

* * *

- assay.conditions: Ebola virus entry assay, reporter ratio channel; Channel type: primary
Activity calls are given as the source filed them.
Mark one answer only. Choices: active, inactive

*Q* Give the logged outcome of this assay for the following molecule: CN1C[C@H]2c3ccccc3Oc3ccc(Cl)cc3[C@@H]2C1
*A* active

*Q* Repeat with CC[C@@H](CO)NC(=O)[C@@H]1C=C2c3cccc4[nH]cc(c34)C[C@H]2N(C)C1
*A* active

*Q* Another: c1ccc2c(c1)OCC(C1=NCCN1)O2 (centres undefined)
*A* active

*Q* Consider next the molecule CC1(CN2CCC(n3c(=O)[nH]c4ccccc43)CC2)OCc2ccccc2-n2cccc21 (centres undefined) in the same way.
*A* active

*Q* And what about the molecule Cc1ccc(NC(=O)c2ccc(CN3CCN(C)CC3)cc2)cc1Nc1nccc(-c2cccnc2)n1 ?
*A* active

*Q* What do you have for CCOC(=O)C1(c2ccccc2)CCN(CCC(C#N)(c2ccccc2)c2ccccc2)CC1 ?
*A* active

*Q* Lookup NC[C@H](O)c1ccc(O)c(O)c1
*A* active

*Q* // same read-out, input: OC(CCN1CCCC1)(c1ccccc1)C1CCCCC1 (centres undefined)
*A* active

*Q* C#C[C@]1(O)CC[C@H]2[C@@H]3CCC4=Cc5oncc5C[C@]4(C)[C@H]3CC[C@@]21C , same question.
*A* active

*Q* Also COc1cccc2c1C(=O)c1c(O)c3c(c(O)c1C2=O)C[C@@](O)(C(=O)CO)C[C@@H]3O[C@H]1C[C@H](N)[C@H](O)[C@H](C)O1 , if possible.
*A* active

*Q* And what about the molecule CC(C)=CCOc1c2occc2cc2ccc(=O)oc12 ?
*A* active

*Q* Request: COC(=O)Nc1nc2ccc(C(=O)C3CC3)cc2[nH]1
*A* active

*Q* Okay, and O=C1[C@H](CC[C@H](O)c2ccc(F)cc2)[C@@H](c2ccc(O)cc2)N1c1ccc(F)cc1 ?
*A* active

*Q* Now this one: CNC1(C)C2CCC(C2)C1(C)C (centres undefined)
*A* active

*Q* Ok, now COc1cc2c(cc1OC)C(=O)C(CC1CCN(Cc3ccccc3)CC1)C2 (centres undefined)
*A* active

*Q* Follow-up item: C[C@H]1c2cccc(O)c2C(O)=C2C(=O)[C@]3(O)C(O)=C(C(N)=O)C(=O)[C@@H](N(C)C)[C@@H]3[C@@H](O)[C@@H]21
*A* active

*Q* Follow-up item: CCCN1C[C@H](CSC)C[C@@H]2c3cccc4[nH]cc(c34)C[C@H]21
*A* active

*Q* Same thing, different molecule: CC(C)NCC(O)COc1ccc(CCOCC2CC2)cc1 (centres undefined)
*A* active

*Q* # iterate: COC(=O)CCc1ccc(OCC(O)CNC(C)C)cc1 (centres undefined)
*A* active

*Q* What do we get for Clc1ccc(C(c2ccccc2Cl)C(Cl)Cl)cc1 (centres undefined) ?
*A* active

*Q* Try the molecule CSc1ccc2c(c1)N(CCC1CCCCN1C)c1ccccc1S2 (centres undefined)
*A* active

*Q* Request: CC[C@@H]([C@H](C)O)n1ncn(-c2ccc(N3CCN(c4ccc(OC[C@@H]5CO[C@@](Cn6cncn6)(c6ccc(F)cc6F)C5)cc4)CC3)cc2)c1=O
*A* active

*Q* Same question, C[C@](N)(Cc1ccc(O)c(O)c1)C(=O)O this time
*A* active

*Q* What do we get for Clc1ccc(COC(Cn2ccnc2)c2ccc(Cl)cc2Cl)cc1 (centres undefined) ?
*A* active

*Q* Next molecule: CN(C)CCOC(C)(c1ccccc1)c1ccccn1 (centres undefined)
*A* active

*Q* Next entry: O=C1c2c(O)ccc(O)c2C(=O)c2c(NCCNCCO)ccc(NCCNCCO)c21
*A* active

*Q* Ok, now Cc1ccccc1C(=O)Nc1ccc(C(=O)N2CCCC(O)c3cc(Cl)ccc32)c(C)c1 (centres undefined)
*A* active

*Q* Entry to check: Cc1ccccc1C(OCCN(C)C)c1ccccc1 (centres undefined)
*A* active

*Q* CC(=O)O[C@]1(C(C)=O)CC[C@H]2[C@@H]3C=C(Cl)C4=CC(=O)[C@@H]5C[C@@H]5[C@]4(C)[C@H]3CC[C@@]21C ?
*A* active

*Q* Then C[C@H]1O[C@@H](O[C@H]2[C@@H](O)C[C@H](O[C@H]3[C@@H](O)C[C@H](O[C@H]4CC[C@@]5(C)[C@H](CC[C@@H]6[C@@H]5CC[C@]5(C)[C@@H](C7=CC(=O)OC7)CC[C@]65O)C4)O[C@@H]3C)O[C@@H]2C)C[C@H](O)[C@@H]1O ?
*A* active

*Q* Request: C[C@]12CC[C@@H]3c4ccc(O)cc4C[C@@H](CCCCCCCCCS(=O)CCCC(F)(F)C(F)(F)F)[C@H]3[C@@H]1CC[C@@H]2O (some centres undefined)
*A* inactive

*Q* Follow-up entry: CC(CCc1ccccc1)NC(C)C(O)c1ccc(O)cc1 (centres undefined)
*A* active

*Q* # repeat for COc1cc([C@@H]2c3cc4c(cc3[C@H](O)[C@H]3COC(=O)[C@H]23)OCO4)cc(OC)c1OC
*A* active

*Q* Also Cc1ccc(-c2cc(C(F)(F)F)nn2-c2ccc(S(N)(=O)=O)cc2)cc1 , if possible.
*A* active

*Q* Another molecule: Nc1ccc(O)c(C(=O)O)c1
*A* active

*Q* Next up: NC(=O)C(c1ccccc1)(c1ccccc1)[C@@H]1CCN(CCc2ccc3c(c2)CCO3)C1
*A* active

*Q* Please give the result for CC1=C(/C=C/C(C)=C/C=C/C(C)=C/C(=O)Nc2ccc(O)cc2)C(C)(C)CCC1 too.
*A* active

*Q* // same read-out, input: O=[N+]([O-])c1ccc(O)c2ncccc12
*A* active

*Q* Also CCN(CCO)CCCC(C)Nc1ccnc2cc(Cl)ccc12 (centres undefined) ?
*A* active

* * *

- procedure.summary: Cell Viability - LYMP2-013 (AID 970);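 also: cells exposed to compound for 24 h at 37 °C; nearly all actives have a fitted effect of over 55% in size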
- assay.conditions: LYMP2-013 lymphoblastoid cells viability; series mostly up to 92.2 µM
Results filed as inconclusive are left out. Calls of active or inactive are those of the source. Calls follow the shape of the dose curve; as a rule, active = well fitted cell-killing curve with a large enough effect; inconclusive = small, poorly fitted or top-dose-only effect; inactive = flat fitted curve, though single readings scatter.
Output constraint: value belongs to YES (active), NO (inactive)

*Q* I'd appreciate the recorded outcome for Oc1ccccc1-c1ccccc1 from this test.
*A* NO

*Q* Next entry: OCCOc1ccccc1
*A* NO

*Q* // next record NCC(O)c1ccc(O)cc1 (stereo unspecified)
*A* NO

*Q* For CC(COc1ccccc1)N(CCCl)Cc1ccccc1 (stereo unspecified) then?
*A* YES

*Q* Next entry: CCOP(=S)(OCC)Oc1cc(C)nc(C(C)C)n1
*A* NO

*Q* Now try CCCC(C)(COC(N)=O)COC(=O)NC(C)C (stereo unspecified) .
*A* NO

* * *

- procedure.summary: Quantitative High-Throughput drug screen in 47 multiple myeloma cell lines against the NCATS MIPE library collection: Karpas25_ECACC cell viability assay (AID 1918968; also: nearly all actives have a fitted effect of over 35% in size)
- assay.conditions: Karpas25 myeloma viability, CellTiter-Glo ATP, 48 h; series mostly up to 45.8 µM
Results filed as inconclusive are left out. The source made the active and inactive calls. Calls follow the shape of the dose curve; as a rule, active = well fitted cell-killing curve with a large enough effect; inconclusive = small, poorly fitted or top-dose-only effect, or effect the other way; inactive = no such curve, though single readings can be large or run the other way.
Parameter call: string, one of active, inactive

*Q* Look up the recorded call for NCC1(CC(=O)O)CCCCC1 in this test.
*A* inactive

*Q* Cc1cc(SCc2sc(-c3ccc(C(F)(F)F)c(F)c3)nc2C)ccc1OCC(=O)O , same question.
*A* active

*Q* Another compound to check: C[C@@H]1[C@@H](CC(C[C@H]2O[C@@H]3O[C@]4(C)CC[C@@H]5[C@H](C)CC[C@@H]([C@H]2C)[C@@]35OO4)C[S+](=O)([O-])c2ccc(COC(=O)N(C)C)cc2)O[C@@H]2O[C@]3(C)CC[C@H]4[C@H](C)CC[C@@H]1[C@@]24OO3 (some centres not stated)
*A* active

*Q* Next record, please: COc1ccc2c(c1OC)CN1CCc3cc4c(cc3C1C2)OCO4 (configuration not stated)
*A* active

*Q* Cool, now Cc1cccc(C)c1NC(=O)CN1CCCC1=O
*A* inactive

*Q* Lookup C[C@@H]1O[C@@H](O[C@H]2C[C@@H](O)[C@]3(CO)[C@H]4[C@H](O)C[C@]5(C)[C@@H](C6=CC(=O)OC6)CC[C@]5(O)[C@@H]4CC[C@]3(O)C2)[C@H](O)[C@H](O)[C@H]1O
*A* active

*Q* Next compound up: CC1=C2C[C@@H]3[C@@H](CC=C4C[C@@H](O)CC[C@@]43C)[C@@H]2CC[C@]12O[C@H]1C[C@H](C)CN[C@H]1[C@H]2C
*A* inactive
